Sourced from patent US20090105278A1

molecular target: CYP11B2 in NCI-H295R (Homo sapiens, UniProt P19099); construct: contain 5 steroidogenic CYP450 enzymes, including 17-alpha-hydroxylase, CYP11B1 and CYP11B2; endogenous in cells; host or cells: NCI-H295R; assay: NCI-H295R cells, CYP11B2 inhibition (substrates corticosterone B or deoxycorticosterone DOC); format: cell-based; conditions: K+ stimulation 20 mM; substrate [3H]-corticosterone (B) 500 nM; incubation 24 h; read-out: NCI-H295R CYP11B2 B [IC50]
Sequence (P19099 25-503): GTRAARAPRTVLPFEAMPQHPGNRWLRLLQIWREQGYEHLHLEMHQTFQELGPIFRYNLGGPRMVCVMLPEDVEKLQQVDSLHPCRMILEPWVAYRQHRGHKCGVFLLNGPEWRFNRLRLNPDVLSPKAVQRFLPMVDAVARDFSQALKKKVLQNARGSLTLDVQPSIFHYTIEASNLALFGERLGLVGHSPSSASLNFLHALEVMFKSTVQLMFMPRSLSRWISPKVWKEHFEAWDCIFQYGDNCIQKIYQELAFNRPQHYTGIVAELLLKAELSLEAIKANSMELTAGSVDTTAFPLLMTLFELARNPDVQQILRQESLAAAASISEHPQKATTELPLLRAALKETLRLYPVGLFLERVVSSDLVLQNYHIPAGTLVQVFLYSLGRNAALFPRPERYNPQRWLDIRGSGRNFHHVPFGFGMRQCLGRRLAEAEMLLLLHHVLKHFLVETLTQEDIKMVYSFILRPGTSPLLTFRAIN
Structures can show the parent of a compound that is named as a salt.
measuredQuantity: pIC50
// pIC50 here means minus log10 of the molar concentration (mol/L)

(Q) # value lookup — system CYP11B2 in NCI-H295R (Homo sapiens, UniProt P19099), readout pIC50, item Fc1ccc2c(c1)CC/C2=C/c1cccnc1 [Compound 5b, Hydrochloride]
(A) 4.77
